# Test system: APOA1 plasma protein
# Measurement description: APOA1 plasma protein levels in C57BL/6 mice
# Assay type: in vivo, mouse
# Run conditions: 50 mg/kg/week, 6 weeks
Oligonucleotides are written 5' to 3', each unit as a sugar letter and its base; * is a phosphorothioate linkage, no mark a phosphodiester; rarer units and linkages stand in square brackets, end groups in braces. Plain capitals give the bases only. e = 2'-O-(2-methoxyethyl) (MOE); [5mC] = 5-methylcytosine; d = 2'-deoxy (DNA)
For each entry below, report its APOA1 plasma protein % change over the baseline value.

Sequence record	Reported
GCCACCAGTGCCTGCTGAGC (antisense eG*e[5mC]*e[5mC]*eA*e[5mC]*d[5mC]*dA*dG*dT*dG*d[5mC]*d[5mC]*dT*dG*d[5mC]*eT*eG*eA*eG*e[5mC]) [ISIS 447143]	+108%
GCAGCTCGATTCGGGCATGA (antisense eG*e[5mC]*eA*eG*e[5mC]*dT*d[5mC]*dG*dA*dT*dT*d[5mC]*dG*dG*dG*e[5mC]*eA*eT*eG*eA) [ISIS 447118]	+88%
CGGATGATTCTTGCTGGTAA (antisense e[5mC]*eG*eG*eA*eT*dG*dA*dT*dT*d[5mC]*dT*dT*dG*d[5mC]*dT*eG*eG*eT*eA*eA) [ISIS 447114]	+122%

Now examine the next entry.
Challenge: Report measured APOA1 plasma protein % change over the baseline on APOA1 plasma protein; entry: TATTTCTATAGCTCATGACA (antisense eT*eA*eT*eT*eT*d[5mC]*dT*dA*dT*dA*dG*d[5mC]*dT*d[5mC]*dA*eT*eG*eA*e[5mC]*eA) [ISIS 447144]
Response given: +108%

* * *

# Test system: murine TTC39B mRNA
# Measurement description: Dose-dependent antisense inhibition of murine TTC39B in mouse primary hepatocytes (Example 3)
# Assay type: cell-based
# Run conditions: 25.0 nM, cytofectin, ~16 h
Oligonucleotides are written 5' to 3', each unit as a sugar letter and its base; * is a phosphorothioate linkage, no mark a phosphodiester; rarer units and linkages stand in square brackets, end groups in braces. Plain capitals give the bases only. e = 2'-O-(2-methoxyethyl) (MOE); [5mC] = 5-methylcytosine; d = 2'-deoxy (DNA)
Assay readout: percent inhibition of TTC39B mRNA (%)
Numbers only, in %.

// each listed sequence needs a value for percent inhibition of TTC39B mRNA
1. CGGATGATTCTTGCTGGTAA (antisense e[5mC]*eG*eG*eA*eT*dG*dA*dT*dT*d[5mC]*dT*dT*dG*d[5mC]*dT*eG*eG*eT*eA*eA) [ISIS 447114]
2. TGTCAGTGACAGTGGCAGCT (antisense eT*eG*eT*e[5mC]*eA*dG*dT*dG*dA*d[5mC]*dA*dG*dT*dG*dG*e[5mC]*eA*eG*e[5mC]*eT) [ISIS 447159]
3. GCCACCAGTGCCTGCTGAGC (antisense eG*e[5mC]*e[5mC]*eA*e[5mC]*d[5mC]*dA*dG*dT*dG*d[5mC]*d[5mC]*dT*dG*d[5mC]*eT*eG*eA*eG*e[5mC]) [ISIS 447143]
4. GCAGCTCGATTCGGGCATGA (antisense eG*e[5mC]*eA*eG*e[5mC]*dT*d[5mC]*dG*dA*dT*dT*d[5mC]*dG*dG*dG*e[5mC]*eA*eT*eG*eA) [ISIS 447118]

Response given:
[34, 37, 44, 45]

* * *

# System: murine TTC39A mRNA
# Measurement description: Dose-dependent antisense inhibition of murine TTC39A in b.END cells
# Format: cell-based, mouse
# Run conditions: 4.375 nM, ~16 h
Oligonucleotides are written 5' to 3', each unit as a sugar letter and its base; * is a phosphorothioate linkage, no mark a phosphodiester; rarer units and linkages stand in square brackets, end groups in braces. Plain capitals give the bases only. e = 2'-O-(2-methoxyethyl) (MOE); [5mC] = 5-methylcytosine; d = 2'-deoxy (DNA)
Assay readout: percent inhibition of TTC39A mRNA (%)
One number for each entry, in %.

Sequence record	percent inhibition of TTC39A mRNA / %
AGTTGGGACCCAGAAGGCCT (eA*eG*eT*eT*eG*dG*dG*dA*d[5mC]*d[5mC]*d[5mC]*dA*dG*dA*dA*eG*eG*e[5mC]*e[5mC]*eT; antisense) [ISIS 474497]	8
GCATGTAGAGAACTTCCAGG (eG*e[5mC]*eA*eT*eG*dT*dA*dG*dA*dG*dA*dA*d[5mC]*dT*dT*e[5mC]*e[5mC]*eA*eG*eG; antisense) [ISIS 474382]	0
CCGCACTTTGATGCCGCCCT (e[5mC]*e[5mC]*eG*e[5mC]*eA*d[5mC]*dT*dT*dT*dG*dA*dT*dG*d[5mC]*d[5mC]*eG*e[5mC]*e[5mC]*e[5mC]*eT; antisense) [ISIS 474435]	0
CGCCTGGACTTCCGGATAGC (e[5mC]*eG*e[5mC]*e[5mC]*eT*dG*dG*dA*d[5mC]*dT*dT*d[5mC]*d[5mC]*dG*dG*eA*eT*eA*eG*e[5mC]; antisense) [ISIS 474369]	0

Now examine the next entry.
Challenge: Name the recorded percent inhibition of TTC39A mRNA of the sequence listed here: TCGGTGCCTCTGACACAGCG (eT*e[5mC]*eG*eG*eT*dG*d[5mC]*d[5mC]*dT*d[5mC]*dT*dG*dA*d[5mC]*dA*e[5mC]*eA*eG*e[5mC]*eG; antisense) [ISIS 474474]
Response given: 0

* * *

# Measurement description: Plasma cholesterol and triglycerides in C57BL/6 mice (Olympus AU400e)
# Assay type: in vivo, mouse
# Run conditions: 50 mg/kg/week, 6 weeks; baseline average of 72 mg/dL
Oligonucleotides are written 5' to 3', each unit as a sugar letter and its base; * is a phosphorothioate linkage, no mark a phosphodiester; rarer units and linkages stand in square brackets, end groups in braces. Plain capitals give the bases only. e = 2'-O-(2-methoxyethyl) (MOE); [5mC] = 5-methylcytosine; d = 2'-deoxy (DNA)
Assay readout: total cholesterol % increase over baseline

// each listed sequence needs a value for total cholesterol % increase over baseline
1. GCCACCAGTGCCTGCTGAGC (antisense eG*e[5mC]*e[5mC]*eA*e[5mC]*d[5mC]*dA*dG*dT*dG*d[5mC]*d[5mC]*dT*dG*d[5mC]*eT*eG*eA*eG*e[5mC]) [ISIS 447143]
2. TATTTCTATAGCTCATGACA (antisense eT*eA*eT*eT*eT*d[5mC]*dT*dA*dT*dA*dG*d[5mC]*dT*d[5mC]*dA*eT*eG*eA*e[5mC]*eA) [ISIS 447144]
3. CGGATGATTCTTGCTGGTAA (antisense e[5mC]*eG*eG*eA*eT*dG*dA*dT*dT*d[5mC]*dT*dT*dG*d[5mC]*dT*eG*eG*eT*eA*eA) [ISIS 447114]
4. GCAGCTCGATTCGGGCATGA (antisense eG*e[5mC]*eA*eG*e[5mC]*dT*d[5mC]*dG*dA*dT*dT*d[5mC]*dG*dG*dG*e[5mC]*eA*eT*eG*eA) [ISIS 447118]

Response given:
["+46%", "+37%", "+61%", "+37%"]

* * *

For each entry below, report its percent inhibition of TTC39C mRNA value.
# Tested on: murine TTC39C mRNA
# Measurement description: Dose-dependent antisense inhibition of murine TTC39C in mouse primary hepatocytes
# Format: cell-based
# Run conditions: 1000.0 nM, electroporation, ~16 h
Oligonucleotides are written 5' to 3', each unit as a sugar letter and its base; * is a phosphorothioate linkage, no mark a phosphodiester; rarer units and linkages stand in square brackets, end groups in braces. Plain capitals give the bases only. e = 2'-O-(2-methoxyethyl) (MOE); [5mC] = 5-methylcytosine; d = 2'-deoxy (DNA)
Answers are plain numbers, in %.

Substance	percent inhibition of TTC39C mRNA, %
ISIS 474613: 5-10-5 MOE gapmer antisense oligonucleotide targeting murine TTC39C (antisense eT*eG*e[5mC]*eT*eT*dT*dA*dA*dT*d[5mC]*d[5mC]*dA*dA*d[5mC]*dG*eA*e[5mC]*eA*eG*eA)	33

Challenge: Report measured percent inhibition of TTC39C mRNA on murine TTC39C mRNA; entry: ISIS 474532: 5-10-5 MOE gapmer antisense oligonucleotide targeting murine TTC39C (antisense eG*eT*eT*eG*eT*dG*d[5mC]*d[5mC]*d[5mC]*d[5mC]*dA*dT*d[5mC]*d[5mC]*dA*e[5mC]*eA*eT*e[5mC]*eA)
Response given: 64

* * *

# System: murine TTC39C mRNA
# Measurement description: Dose-dependent antisense inhibition of murine TTC39C in mouse primary hepatocytes
# Assay type: cell-based
# Run conditions: mouse primary hepatocytes, electroporation, ~16 h
Oligonucleotides are written 5' to 3', each unit as a sugar letter and its base; * is a phosphorothioate linkage, no mark a phosphodiester; rarer units and linkages stand in square brackets, end groups in braces. Plain capitals give the bases only. e = 2'-O-(2-methoxyethyl) (MOE); [5mC] = 5-methylcytosine; d = 2'-deoxy (DNA)
Assay readout: IC50
Respond with the figure and its unit, in that order.

Reference set, count: 3
Substance	Test system	IC50
ISIS 474592: 5-10-5 MOE gapmer antisense oligonucleotide targeting murine TTC39C (antisense eG*eA*eA*eG*e[5mC]*dA*dT*dA*dT*dT*dG*dA*dT*dG*d[5mC]*e[5mC]*eA*eG*e[5mC]*e[5mC])	murine TTC39C mRNA	1200 nM
ISIS 474666: 5-10-5 MOE gapmer antisense oligonucleotide targeting murine TTC39C (antisense e[5mC]*eA*eA*eT*e[5mC]*dA*dT*dG*d[5mC]*dT*dG*d[5mC]*dA*d[5mC]*d[5mC]*eA*eG*e[5mC]*e[5mC]*eT)	murine TTC39C mRNA	800 nM
ISIS 474604: 5-10-5 MOE gapmer antisense oligonucleotide targeting murine TTC39C (antisense eT*eG*eT*e[5mC]*eA*d[5mC]*dT*dG*d[5mC]*d[5mC]*dG*dT*d[5mC]*d[5mC]*dA*eA*eA*eG*e[5mC]*eA)	murine TTC39C mRNA	500 nM

Now examine the next entry.
Challenge: Name the recorded IC50 of the substance listed here: ISIS 474532: 5-10-5 MOE gapmer antisense oligonucleotide targeting murine TTC39C (antisense eG*eT*eT*eG*eT*dG*d[5mC]*d[5mC]*d[5mC]*d[5mC]*dA*dT*d[5mC]*d[5mC]*dA*e[5mC]*eA*eT*e[5mC]*eA)
Response given: 400 nM
